Target: PfSpdS (Plasmodium falciparum)
Sequence (Q8II73 entry or part of it): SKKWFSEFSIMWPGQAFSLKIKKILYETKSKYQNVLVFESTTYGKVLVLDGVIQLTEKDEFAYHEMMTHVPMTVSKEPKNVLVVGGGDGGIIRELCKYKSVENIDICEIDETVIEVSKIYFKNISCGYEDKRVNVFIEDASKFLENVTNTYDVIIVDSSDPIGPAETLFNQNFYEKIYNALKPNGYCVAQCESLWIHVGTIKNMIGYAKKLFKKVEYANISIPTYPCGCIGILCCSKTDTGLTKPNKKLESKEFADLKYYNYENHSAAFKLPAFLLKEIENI
Experiment: biochemical
Type: binding
Conditions: PfSpdS saturated with MTA (ligand 1); values for ligand 2
Procedure: Protein samples of 1 mg/ml were dialyzed overnight at 4°C against buffer containing 100 mM HEPES, pH 7.5, 250 mM NaCl. Protein concentration was determined by UV absorption (A280 = 1 for 1.3 mg/mL) immediately before loading into the calorimeter cell. […] The protein at a concentration of 0.8–30 μM was loaded into the sample cell of a VP-ITC microcalorimeter (MicroCal, Inc.). […]
Would you mind telling me the reported ΔH of each entry?

Q: Which ΔH is reported for this molecule? `NCCCCNCCCN`
Ans: -6.1 ± 0.3 kcal/mol

Q: Now consider `NCCCN[C@H]1CC[C@H](N)CC1` and answer again.
Ans: -0.6 ± 0.1 kcal/mol

Q: Now consider `NCc1ccc(N)cc1` and answer again.
Ans: -3.5 ± 0.2 kcal/mol

Q: Now consider `NCCCCN` and answer again.
Ans: -12.4 ± 0.9 kcal/mol
